Molecular target: PTHR1 receptor
Sequence (P25961 whole entry): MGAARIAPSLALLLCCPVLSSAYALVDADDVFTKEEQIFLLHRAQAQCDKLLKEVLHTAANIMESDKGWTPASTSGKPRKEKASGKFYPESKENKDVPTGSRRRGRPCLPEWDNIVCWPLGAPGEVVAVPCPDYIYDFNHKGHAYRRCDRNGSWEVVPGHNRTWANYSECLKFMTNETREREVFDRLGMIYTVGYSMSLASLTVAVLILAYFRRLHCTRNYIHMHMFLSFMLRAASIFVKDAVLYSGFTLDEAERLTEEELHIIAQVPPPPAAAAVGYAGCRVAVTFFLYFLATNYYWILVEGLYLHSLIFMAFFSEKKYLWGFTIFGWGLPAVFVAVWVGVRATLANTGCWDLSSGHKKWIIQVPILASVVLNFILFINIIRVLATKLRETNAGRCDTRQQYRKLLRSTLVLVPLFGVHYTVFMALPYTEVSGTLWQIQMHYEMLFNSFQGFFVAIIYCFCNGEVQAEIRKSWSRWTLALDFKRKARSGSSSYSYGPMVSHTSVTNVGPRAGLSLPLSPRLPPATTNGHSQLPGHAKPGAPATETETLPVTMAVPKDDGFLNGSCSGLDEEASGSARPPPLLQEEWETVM
* marks the point of attachment. Palmitoyl = CCCCCCCCCCCCCCCC(=O)*
Measure Name: Inhibition of Maximal Response (%)
Quick reminder: number only, in %, skip the unit.

Give Inhibition of Maximal Response for Palmitoyl-SGRVLATKLRETNA-NH2 (SMILES CCCCCCCCCCCCCCCC(=O)N[C@@H](CO)C(=O)NCC(=O)N[C@@H](CCCNC(=N)N)C(=O)N[C@H](C(=O)N[C@@H](CC(C)C)C(=O)N[C@@H](C)C(=O)N[C@H](C(=O)N[C@@H](CCCCN)C(=O)N[C@@H](CC(C)C)C(=O)N[C@@H](CCCNC(=N)N)C(=O)N[C@@H](CCC(=O)O)C(=O)N[C@H](C(=O)N[C@@H](CC(N)=O)C(=O)N[C@@H](C)C(N)=O)[C@@H](C)O)[C@@H](C)O)C(C)C) [Compound 73]
32.3

// Input: Palmitoyl-SGRRLHSTRNYIHMH-NH2 (SMILES CCCCCCCCCCCCCCCC(=O)N[C@@H](CO)C(=O)NCC(=O)N[C@@H](CCCNC(=N)N)C(=O)N[C@@H](CCCNC(=N)N)C(=O)N[C@@H](CC(C)C)C(=O)N[C@@H](Cc1c[nH]cn1)C(=O)N[C@@H](CO)C(=O)N[C@H](C(=O)N[C@@H](CCCNC(=N)N)C(=O)N[C@@H](CC(N)=O)C(=O)N[C@@H](Cc1ccc(O)cc1)C(=O)N[C@H](C(=O)N[C@@H](Cc1c[nH]cn1)C(=O)N[C@@H](CCSC)C(=O)N[C@@H](Cc1c[nH]cn1)C(N)=O)[C@@H](C)CC)[C@@H](C)O) [Compound 17] . Output its Inhibition of Maximal Response only.
39.4

Kindly indicate its recorded Inhibition of Maximal Response. Item: Palmitoyl-SSYFRRLHSTRNYIH-NH2 (SMILES CCCCCCCCCCCCCCCC(=O)N[C@@H](CO)C(=O)N[C@@H](CO)C(=O)N[C@@H](Cc1ccc(O)cc1)C(=O)N[C@@H](Cc1ccccc1)C(=O)N[C@@H](CCCNC(=N)N)C(=O)N[C@@H](CCCNC(=N)N)C(=O)N[C@@H](CC(C)C)C(=O)N[C@@H](Cc1c[nH]cn1)C(=O)N[C@@H](CO)C(=O)N[C@H](C(=O)N[C@@H](CCCNC(=N)N)C(=O)N[C@@H](CC(N)=O)C(=O)N[C@@H](Cc1ccc(O)cc1)C(=O)N[C@H](C(=O)N[C@@H](Cc1c[nH]cn1)C(N)=O)[C@@H](C)CC)[C@@H](C)O) [Compound 12]
26.6

Provide only the value of recorded Inhibition of Maximal Response for Palmitoyl-TNAGRSDTRQQYRKAL-NH2 (SMILES CCCCCCCCCCCCCCCC(=O)N[C@H](C(=O)N[C@@H](CC(N)=O)C(=O)N[C@@H](C)C(=O)NCC(=O)N[C@@H](CCCNC(=N)N)C(=O)N[C@@H](CO)C(=O)N[C@@H](CC(=O)O)C(=O)N[C@H](C(=O)N[C@@H](CCCNC(=N)N)C(=O)N[C@@H](CCC(N)=O)C(=O)N[C@@H](CCC(N)=O)C(=O)N[C@@H](Cc1ccc(O)cc1)C(=O)N[C@@H](CCCNC(=N)N)C(=O)N[C@@H](CCCCN)C(=O)N[C@@H](C)C(=O)N[C@@H](CC(C)C)C(N)=O)[C@@H](C)O)[C@@H](C)O) [Compound 89]
-20.4
